Origin of values: paper PMC4600319

assay.explanation: Open-label, three-way, sequential, cross-over pharmacokinetic interaction study, plasma, non-compartmental analysis
Type: in vivo, human (healthy Thai adults)
condition.details: both sexes, human, plasma, oral, 3-day artesunate-mefloquine with LPV/r (Period 3), plasma; median (95 % CI); read-out: AUC0–24h
Reported AUC(0-t) values for the following compounds.
property.name: AUC(0-t) (ng·h/mL)

compound: C[C@H]1[C@H](OC(=O)CCC(=O)O)O[C@@H]2O[C@@]3(C)CC[C@H]4[C@H](C)CC[C@@H]1[C@@]24OO3 [Artesunate, artesunate]
measure.unit: ng·h/mL
reported.result: 240
--
compound: C[C@H]1[C@@H](O)O[C@@H]2O[C@@]3(C)CC[C@H]4[C@H](C)CC[C@@H]1[C@@]24OO3 [Dihydroartemisinin, dihydroartemisinin]
measure.unit: ng·h/mL
reported.result: 990

====

assay.explanation: Open-label, three-way, sequential, cross-over pharmacokinetic interaction study, plasma, non-compartmental analysis
Assay type: in vivo, human (healthy Thai adults)
condition.details: in vivo
property.name: extrapolated AUC from the last blood sampling time to infinity (AUCt−∞)

compound: C[C@H]1[C@@H](O)O[C@@H]2O[C@@]3(C)CC[C@H]4[C@H](C)CC[C@@H]1[C@@]24OO3 [Dihydroartemisinin, dihydroartemisinin]
reported.result: less than 5%
--
compound: Cc1cccc(C)c1OCC(=O)N[C@@H](Cc1ccccc1)[C@@H](O)C[C@H](Cc1ccccc1)NC(=O)[C@H](C(C)C)N1CCCNC1=O
reported.result: less than 5%
--
compound: CC(C)c1nc(CN(C)C(=O)N[C@H](C(=O)N[C@@H](Cc2ccccc2)C[C@H](O)[C@H](Cc2ccccc2)NC(=O)OCc2cncs2)C(C)C)cs1
reported.result: less than 5%

====

assay.explanation: Open-label, three-way, sequential, cross-over pharmacokinetic interaction study, plasma, non-compartmental analysis
Assay type: in vivo, human (healthy Thai adults)
condition.details: both sexes, human, plasma, oral, 3-day artesunate-mefloquine alone (Period 1); median (95 % CI)

molecule: C[C@H]1[C@@H](O)O[C@@H]2O[C@@]3(C)CC[C@H]4[C@H](C)CC[C@@H]1[C@@]24OO3 [Dihydroartemisinin, dihydroartemisinin]
AUC(0-inf): 2.68 µg·h/mL

molecule: OC(c1cc(C(F)(F)F)nc2c(C(F)(F)F)cccc12)C1CCCCN1 (centres unmarked)
AUC(0-inf): 1160 µg·h/mL

====

assay.explanation: Open-label, three-way, sequential, cross-over pharmacokinetic interaction study, plasma, non-compartmental analysis
Assay type: in vivo, human (healthy Thai adults)
condition.details: both sexes, human, plasma, oral, 3-day artesunate-mefloquine with LPV/r (Period 3), plasma; median (95 % CI); read-out: t1/2z (converted)
Item-by-item account of half-life

compound: OC(c1cc(C(F)(F)F)nc2c(C(F)(F)F)cccc12)C1CCCCN1 (centres unmarked)
half-life: 336 h
--
compound: C[C@H]1[C@@H](O)O[C@@H]2O[C@@]3(C)CC[C@H]4[C@H](C)CC[C@@H]1[C@@]24OO3 [Dihydroartemisinin, dihydroartemisinin]
half-life: 9.99 h
